- Study System: 5-hydroxytryptamine receptor 4 (Cavia porcellus, UniProt O70528)
- Sequence (O70528 whole entry): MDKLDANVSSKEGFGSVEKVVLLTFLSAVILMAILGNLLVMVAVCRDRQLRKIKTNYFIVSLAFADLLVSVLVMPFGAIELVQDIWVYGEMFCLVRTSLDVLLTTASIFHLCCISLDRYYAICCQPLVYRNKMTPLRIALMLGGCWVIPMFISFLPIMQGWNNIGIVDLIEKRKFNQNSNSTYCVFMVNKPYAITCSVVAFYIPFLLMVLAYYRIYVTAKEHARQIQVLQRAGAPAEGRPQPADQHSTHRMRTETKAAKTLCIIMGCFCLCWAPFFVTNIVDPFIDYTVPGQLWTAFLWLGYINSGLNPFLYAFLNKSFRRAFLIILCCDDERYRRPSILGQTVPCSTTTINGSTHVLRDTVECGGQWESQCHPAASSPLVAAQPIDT
Parameter Ki: see the listing below.
Report field: quantity (unit follows the number).

Example cases with answers are listed next.
- Compound Smiles: "CCCN1CCC(COc2nc3ccccc3c3cc(F)ccc23)CC1"
  Experimental Result: "209 nM"
- Compound Smiles: "CCCN1CCC(COc2nc3c(Cl)cccc3c3ccccc23)CC1"
  Experimental Result: "21.9 nM"

# context switch: different compound, same Ki
### Prompt Please respond with reported Ki (system 5-hydroxytryptamine receptor 4 (Cavia porcellus, UniProt O70528)) for CCCN1CCC(COc2nc3cc(F)ccc3c3ccccc23)CC1 .
### Response 101 nM

---

Measurement record for 5-hydroxytryptamine receptor 1A (Homo sapiens, UniProt P08908); quantity recorded: Ki.

- Compound Smiles: "CCCN1CCC(COc2nc3c(I)cccc3c3ccccc23)CC1"
  Ki: "> 10 µM"

### Prompt Specify Ki for CCCN1CCC(COc2nc3c(OC)cccc3c3ccccc23)CC1 , system 5-hydroxytryptamine receptor 1A (Homo sapiens, UniProt P08908).
### Response > 10 µM

### Prompt Please look at CCCN1CCC(COc2nc3ccccc3c3ncccc23)CC1 and tell me its recorded Ki on 5-hydroxytryptamine receptor 1A (Homo sapiens, UniProt P08908).
Sequence (P08908 whole entry): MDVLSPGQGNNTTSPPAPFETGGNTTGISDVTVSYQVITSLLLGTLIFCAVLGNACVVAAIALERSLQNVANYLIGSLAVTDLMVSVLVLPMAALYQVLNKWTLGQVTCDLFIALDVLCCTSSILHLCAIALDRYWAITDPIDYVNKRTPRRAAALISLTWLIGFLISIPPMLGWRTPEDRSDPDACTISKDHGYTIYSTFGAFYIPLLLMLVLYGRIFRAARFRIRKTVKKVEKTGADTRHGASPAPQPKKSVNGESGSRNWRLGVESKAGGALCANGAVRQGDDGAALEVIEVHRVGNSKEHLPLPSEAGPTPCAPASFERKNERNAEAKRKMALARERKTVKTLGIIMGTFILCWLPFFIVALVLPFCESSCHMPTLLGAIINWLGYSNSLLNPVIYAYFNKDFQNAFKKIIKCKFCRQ
### Response > 10 µM

---

- Study System: 5-hydroxytryptamine receptor 4 (Cavia porcellus)
- Assay Explanation: Displacement of [3H]GR113808 from 5HT4R in guinea pig striatal membranes at 1 uM
- Type: cell membranes
- Settings: Striatum, Membrane
Property Measured: inhibition (%)
Answer in %, number only, no unit symbol.

- Compound Smiles: "CCCN1CCC(COc2nc3cc(Cl)ccc3c3ccccc23)CC1"
  Measurement Unit: "%"
  inhibition: 85
- Compound Smiles: "CCCN1CCC(COc2nc3ccccc3c3cnccc23)CC1"
  Measurement Unit: "%"
  inhibition: 100

### Prompt # return recorded inhibition for input CCCN1CCC(COc2nc3c(I)cccc3c3ccccc23)CC1
### Response 100

### Prompt Given the compound CCCN1CCC(COc2nc3c(OC)cccc3c3ccccc23)CC1 , write its reported inhibition.
### Response 100
